Entries and their pIC50 values follow.
biological target: Receptor-interacting serine/threonine-protein kinase 1 (Homo sapiens, UniProt Q13546); test: Inhibition of human N-terminal His-GST-TEV-fused RIP1 kinase domain (1 to 375) autophosphorylation expressed in baculovirus infected insect Sf9 cells after 4 hrs by ADP-Glo luminescence assay
Sequence (Q13546 whole entry, the tested form may be a part): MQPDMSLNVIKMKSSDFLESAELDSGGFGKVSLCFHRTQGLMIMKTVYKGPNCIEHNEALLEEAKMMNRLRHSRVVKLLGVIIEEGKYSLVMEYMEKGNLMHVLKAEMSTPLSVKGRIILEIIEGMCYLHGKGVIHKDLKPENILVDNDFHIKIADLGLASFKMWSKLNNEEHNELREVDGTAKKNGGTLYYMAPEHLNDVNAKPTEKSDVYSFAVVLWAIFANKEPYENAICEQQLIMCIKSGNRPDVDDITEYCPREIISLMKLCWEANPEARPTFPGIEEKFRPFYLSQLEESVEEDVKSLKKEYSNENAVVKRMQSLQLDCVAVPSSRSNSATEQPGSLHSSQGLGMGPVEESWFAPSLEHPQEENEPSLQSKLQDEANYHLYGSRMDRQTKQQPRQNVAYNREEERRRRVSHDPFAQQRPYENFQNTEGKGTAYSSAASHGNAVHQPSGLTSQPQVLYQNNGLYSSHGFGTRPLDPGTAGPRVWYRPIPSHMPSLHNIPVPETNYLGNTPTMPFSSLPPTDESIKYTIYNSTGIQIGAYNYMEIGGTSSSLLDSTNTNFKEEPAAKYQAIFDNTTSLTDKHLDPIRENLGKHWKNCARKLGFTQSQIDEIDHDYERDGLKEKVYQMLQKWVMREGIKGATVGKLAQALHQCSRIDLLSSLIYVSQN
Reminder that pIC50 means the negative base-10 logarithm of the concentration expressed in mol/L.

Recorded results for 4 molecules are shown here.
{"entry smiles": "O=C(Nc1cccc(-c2c[nH]c3ncc(-c4cccnc4)cc23)c1)Nc1cc(C(F)(F)F)ccc1F", "pIC50": 8.40}
{"entry smiles": "NC(=O)c1cccc(-c2cnc3[nH]cc(-c4cccc(NC(=O)Nc5cc(C(F)(F)F)ccc5F)c4)c3c2)c1", "pIC50": 8.00}
{"entry smiles": "Nc1nccc2c(-c3ccc(NC(=O)Nc4cc(C(F)(F)F)ccc4F)cc3)cccc12", "pIC50": 6.89}
{"entry smiles": "O=C(Nc1cccc(-c2c[nH]c3ncc(-c4ccccc4)cc23)c1)Nc1cccc(C(F)(F)F)c1", "pIC50": 7.49}

[ask] Reported pIC50, molecule "CC(C)(C)c1cc(NC(=O)Nc2ccc(-c3coc4ncnc(N)c34)cc2)no1" : ____
[reply] 7.80

---

Entries and their pIC50 values follow.
target: Receptor-interacting serine/threonine-protein kinase 1 (Homo sapiens); assay: Displacement of (14-(2-{[3-({2-{[4-(cyanomethyl)phenyl]amino}-6-[(5-cyclopropyl-1H-pyrazol-3-yl)amino]-4-pyrimidinyl}amino)propyl]amino}-2-oxoethyl)-16,16,18,18-tetramethyl-6,7,7a,8a,9,10,16,18-octahydrobenzo[2'',3'']indolizino[8'',7'':5',6']pyrano[3',2':3,4]pyrido[1,2-a]indol-5-ium-2-sulfonate from human N-terminal His-GST-TEV-fused RIP1 kinase domain (1 to 375) expressed in baculovirus infected insect Sf9 cells preincubated for 10 mins followed by fluorescent ligand addition measured after 15 mins by fluorescence polarization assay
Reminder that pIC50 means the negative base-10 logarithm of the concentration expressed in mol/L.

{"entry smiles": "Nc1ncnc2occ(-c3ccc(NC(=O)Nc4cc(F)cc(C(F)(F)F)c4)cc3)c12", "pIC50": 6.89}

[ask] Reported pIC50, compound "CS(=O)(=O)c1cccc(-c2cnc3[nH]cc(-c4cccc(NC(=O)Nc5cc(C(F)(F)F)ccc5F)c4)c3c2)c1" : ____
[reply] 7.20

[ask] Next compound: "O=C(Nc1cccc(-c2c[nH]c3ncc(-c4ccccc4)cc23)c1)Nc1cc(C(F)(F)F)ccc1F"
[reply] 6.70

[ask] Next compound: "O=C(Nc1cccc(-c2c[nH]c3ncc(-c4cccnc4)cc23)c1)Nc1cc(C(F)(F)F)ccc1F"
[reply] 8.10

[ask] Next compound: "Nc1nccc2c(-c3ccc(NC(=O)Nc4cccc(C(F)(F)F)c4)cc3)cccc12"
[reply] 7.70

[ask] Next compound: "Nc1ncnc2occ(-c3ccc(NC(=O)Nc4ccc5ccccc5c4)cc3)c12"
[reply] 7.00

[ask] Next compound: "CC(=O)c1cccc(NC(=O)Nc2cccc(-c3c[nH]c4ncc(-c5ccccc5)cc34)c2)c1"
[reply] 7.89

[ask] Next compound: "CCS(=O)(=O)c1ccc(-c2cnc3[nH]cc(-c4cccc(NC(=O)Nc5cc(C(F)(F)F)ccc5F)c4)c3c2)cc1"
[reply] 8.49

---

Entries and their IC50 values follow.
target: Receptor-interacting serine/threonine-protein kinase 1 (Homo sapiens, UniProt Q13546); assay: Inhibition of human N-terminal His-GST-TEV-fused RIP1 kinase domain (1 to 375) autophosphorylation expressed in baculovirus infected insect Sf9 cells after 4 hrs by ADP-Glo luminescence assay
Number only, in nM; omit the unit.

{"compound": "Nc1nccc2c(-c3ccc(NC(=O)Nc4cc(F)cc(C(F)(F)F)c4)cc3)cccc12", "experimental system": "Receptor-interacting serine/threonine-protein kinase 1 (Homo sapiens, UniProt Q13546)", "IC50, nM": 25}
{"compound": "O=C(Nc1cccc(-c2c[nH]c3ncc(-c4ccccc4)cc23)c1)NC1CCCC1", "experimental system": "Receptor-interacting serine/threonine-protein kinase 1 (Homo sapiens, UniProt Q13546)", "IC50, nM": 500}
{"compound": "Nc1ncnc2occ(-c3ccc(NC(=O)Nc4ccc(F)c(C(F)(F)F)c4)cc3)c12", "experimental system": "Receptor-interacting serine/threonine-protein kinase 1 (Homo sapiens, UniProt Q13546)", "IC50, nM": 500}

[ask] // lookup IC50 | system=Receptor-interacting serine/threonine-protein kinase 1 (Homo sapiens, UniProt Q13546) | key= "Nc1nccc2c(-c3ccc(NC(=O)Nc4cccc(C(F)(F)F)c4)cc3)cccc12"
[reply] 25

[ask] Next compound: "Nc1ncnc2occ(-c3ccc(NC(=O)Nc4cc(F)cc(C(F)(F)F)c4)cc3)c12"
[reply] 63

[ask] Next compound: "O=C(Nc1cccc(-c2c[nH]c3ncc(-c4ccccc4)cc23)c1)Nc1cc(C(F)(F)F)ccc1F"
[reply] 80

[ask] Next compound: "Nc1ncnc2occ(-c3ccc(NC(=O)Nc4ccc(Cl)c(C(F)(F)F)c4)cc3)c12"
[reply] 32
